Test system: Escherichia coli DH5alpha
MEASUREMENT_TYPE: MIC (µM)

INSERT INTO results (chemical_string, units, quantitative_result) VALUES
  ('CC(C)C[C@H](NC(=O)[C@H](CC(C)C)NC(=O)[C@H](CC(C)C)NC(=O)[C@H](CC(C)C)NC(=O)[C@H](CC(C)C)NC(=O)[C@H](CCCN=C(N)N)NC(=O)[C@H](CCCN=C(N)N)NC(=O)[C@@H](N)CCCN=C(N)N)C(=O)N[C@@H](CCCN=C(N)N)C(=O)N[C@@H](CCCN=C(N)N)C(=O)N[C@@H](CCCN=C(N)N)C(=O)O', 'µM', 8);

----------
Tested on: Salmonella enterica subsp. enterica serovar Pullorum C79-13
Reported MIC is given for each of the following compounds.
MEASUREMENT_TYPE: MIC (µM)

INSERT INTO measurements (chemical_string, sign_qualifier, quantitative_result) VALUES
  ('CC[C@H](C)[C@H](N)C(=O)N[C@@H](Cc1cnc[nH]1)C(=O)N[C@@H](CCCCN)C(=O)N[C@@H](Cc1ccccc1)C(=O)N[C@@H](Cc1c[nH]c2ccccc12)C(=O)N[C@@H](CCCN=C(N)N)C(=O)NCC(=O)NCC(=O)N[C@@H](CCCN=C(N)N)C(=O)N[C@@H](Cc1c[nH]c2ccccc12)C(=O)N[C@@H](Cc1ccccc1)C(=O)N[C@@H](CCCCN)C(=O)N[C@@H](Cc1cnc[nH]1)C(=O)N[C@H](C(N)=O)[C@@H](C)CC', '=', 8),
  ('C[C@H](NC(=O)[C@H](C)NC(=O)[C@H](CCCCN)NC(=O)[C@H](C)NC(=O)[C@H](C)NC(=O)[C@H](C)NC(=O)[C@H](CCCCN)NC(=O)[C@H](Cc1ccccc1)NC(=O)[C@@H](N)Cc1c[nH]c2ccccc12)C(=O)N[C@@H](C)C(=O)N[C@@H](CCCCN)C(=O)N[C@@H](Cc1ccccc1)C(=O)N[C@@H](Cc1c[nH]c2ccccc12)C(N)=O', '=', 8),
  ('CC(C)C[C@H](NC(=O)[C@@H](NC(=O)[C@@H](NC(=O)[C@@H](N)CC(C)C)C(C)C)[C@@H](C)O)C(=O)N[C@H](C(=O)N[C@@H](Cc1ccccc1)C(=O)N[C@H](C(=O)O)C(C)C)C(C)C', '≥', 128),
  ('CC(=O)N[C@@H](Cc1c[nH]c2ccccc12)C(=O)N[C@@H](CCCN=C(N)N)C(=O)N[C@@H](CCCCN)C(=O)N[C@@H](CC(C)C)C(=O)N[C@@H](Cc1c[nH]c2ccccc12)C(=O)N[C@@H](CCCN=C(N)N)C(=O)NCC(=O)NCC(=O)N[C@@H](CC(C)C)C(=O)N[C@@H](CCCCN)C(=O)N[C@@H](CCCN=C(N)N)C(=O)N[C@@H](Cc1c[nH]c2ccccc12)C(=O)N[C@@H](CC(C)C)C(=O)N[C@@H](CCCCN)C(N)=O', '=', 2);

----------
System: Escherichia coli ATCC 25922
Test: ≥ marks a high value that may be exact or a test limit, other limits are often not marked, values filed in µg/mL are converted to µM
MEASUREMENT_TYPE: MIC (µM)

INSERT INTO results (chemical_string, quantitative_result) VALUES
  ('CC(C)C[C@H](NC(=O)[C@H](CCCCN)NC(=O)[C@H](CCCN=C(N)N)NC(=O)[C@H](Cc1ccccc1)NC(=O)[C@H](Cc1ccccc1)NC(=O)[C@H](CCCCN)NC(=O)[C@H](CCCCN)NC(=O)[C@H](Cc1ccccc1)NC(=O)[C@H](CCCN=C(N)N)NC(=O)[C@H](CCCCN)NC(=O)[C@@H](NC(=O)[C@@H](N)CC(C)C)C(C)C)C(=O)N[C@@H](CCCCN)C(=O)N[C@@H](CCCCN)C(=O)N[C@@H](CO)C(=O)N[C@H](C(=O)N[C@@H](CCCCN)C(=O)N[C@@H](CCCCN)C(N)=O)C(C)C', 6.93);
